system: UniProt P56373
Sequence (P56373 1-397): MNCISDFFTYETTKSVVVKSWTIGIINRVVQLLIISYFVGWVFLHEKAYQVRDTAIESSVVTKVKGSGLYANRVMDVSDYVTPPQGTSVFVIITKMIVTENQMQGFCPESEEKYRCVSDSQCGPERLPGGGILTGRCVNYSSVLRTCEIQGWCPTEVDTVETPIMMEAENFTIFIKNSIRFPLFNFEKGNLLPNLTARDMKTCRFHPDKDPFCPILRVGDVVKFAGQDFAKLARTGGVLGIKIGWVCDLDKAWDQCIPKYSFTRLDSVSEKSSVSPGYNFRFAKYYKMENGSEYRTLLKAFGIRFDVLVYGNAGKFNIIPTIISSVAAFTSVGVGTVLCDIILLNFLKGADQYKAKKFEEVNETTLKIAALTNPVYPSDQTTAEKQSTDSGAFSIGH
assay_remarks: hP2X3 FLIPR calcium (Fluo-4) antagonist assay, clone B
measurement_setup: Human P2X3 FLIPR Clone B IC50 (nM), RLE cells expressing hP2X3 clone B (NM_002559); agonist 500 nM α,β-methylene-ATP
measured_parameter: IC50 (nM)

Consider the following illustrative entries.
{"columns": ["molecule", "IC50 (nM)"],
 "data": [
  ["CCOc1ccc([C@@H](C)N(C)c2nc(N3CCN(C(C)=O)CC3)nc3c2CN(C(C)C)C3=O)cc1F", 85],
  ["CC(=O)N1CCN(c2nc3c(c(N4CCCC4Cc4ccc(F)cc4)n2)CN(C(C)C)C3=O)CC1 (centres unmarked)", 150],
  ["CC(C)N1Cc2c(NCc3cnc4ccccc4c3)nc(N(C)C)nc2C1=O", 9600],
  ["CCN(CC)c1nc(NC(c2ccccc2)c2ccccc2)c2c(n1)C(=O)N(C(C)C)C2", 6200],
  ["CC(C)N1Cc2c(nc(NCCN(C)C)nc2N(Cc2ccccc2)Cc2ccccc2)C1=O", 5300]
]}

a. CC(=O)N1CCN(c2nc(N[C@H](C)c3ccc(OC(C)C)cc3)c3c(n2)C(=O)N(C(C)C)C3)CC1
b. CC(=O)NC1CCN(c2nc(NC(C)(C)Cc3ccc(Cl)cc3)c3c(n2)C(=O)N(C(C)C)C3)C1 (centres unmarked)
c. CCN1CCN(c2nc(NC3c4cccnc4CCc4c(F)cccc43)c3c(n2)C(=O)N(C(C)C)C3)CC1 (centres unmarked)
d. CCOc1ccc([C@@H](C)Nc2nc(N3CCN(C(C)=O)CC3)nc3c2CN(C(C)C)C3=O)c(F)c1
e. CC(C)N1Cc2c(NC(C)(C)Cc3ccc(Cl)cc3)nc(NCCN3CCCC3=O)nc2C1=O
# sort list by recorded IC50, greatest to least Ranked list of labels, please, in the requested order.
c, e, b, a, d
(c: 1400 nM, e: 780 nM, b: 340 nM, a: 80 nM, d: 38 nM)
